- Assay details: yeast display, Sf9 membrane polyspecificity reagent, FACS + sequencing; frameworks hold sequencing errors
Experimental readout: polyreactivity (PSR sort gate)

Study these solved cases before continuing.
| Construct sequence | polyreactivity (PSR sort gate) |
| --- | --- |
| QVQLQECGGGLVQAGGSLRLSCAARGNIFDADIMGWYRQAPGKESELLASVTDGGSTNYADSVKGRFTISRDNAKNTVYLQMNSLKPEDSAVYYCAAIVYPDILTYFDYDYDYFYWGQGTQVTVGS | low polyreactivity |
| QVQLVESGGGLVQAGGSLRLSCAASGSTFYRNAMGWYRQAPGKEREFVAAISFRGGGTYADSVKGRFTISRDNAKNTVYFQMNILKPEDTAVYYCAADLLSYRGRYEYWGQGTQVTVSS | low polyreactivity |
| QVQLVESGGGLVQAGGSLRLSCAASGRIFDNYGMGWYRQAPGKERELVAAISSGGGRYYADSVTGRFTISRDNAKNTVYFQMHSLKPEDTAVYYCAKDPKYHLSGGYDYWGQGTQVTVSS | low polyreactivity |
| QVQLVVSGGGLVQAGGSLSLSWAASGRIFSSYAMGWYRQAPGKERELDAAIDRTDSTYYADSVKGRFTISRDNAKNTVYLQMNSLIPEDTAVYYCAVLTYRYQSWGNYYLEYDYWGQGTEVTVSS | low polyreactivity |
| QVQLVESGGGLVQAGGSLRLSCAASGSTFARYAMGWYRQAPGKEREFVAAISASGGRTYYADSVKGRFTISRDNAKNTVYLQMNSLKPEDTAVYYCAVRVYAKYFAKYDYWGQGTQVTVSS | high polyreactivity |

Given item QVQLVESGGGLVQEGGSLRLICAASGSTFWANAMGWYRQEPGKERELVAAISVRGGNTYYADSVKGRFTISRDNAKNTVYLQMNSLKAEVTAVYYCAARPISWTSYYDYWGQGTQVTVSS , the value recorded as its polyreactivity (PSR sort gate) is high polyreactivity

Entry QVQLVETGGGLVQAGGSLRLSCAASGRTFAYYAMGWYRQAPGKERELVAAISSGGRTNYADSVKGLFTISRDNAKNTVYLQMNSLKPEDTAVYYCAAVRWVYPRRYYYWGQGTQVTVSS , polyreactivity (PSR sort gate) reported as high polyreactivity

For this sequence ( QVQLVESGGGLVQAGGSLRLSCAASGSIFWPYAMGWYRQAPGKEREFVATISSSGSRTHYADSVKGRFTISRDNAKNTVSLQMNSLKPEDTAVYYCNADNPYSDGADSLGNYWGQGTQVTVSS ), measured polyreactivity (PSR sort gate) is low polyreactivity

Data point: QVQLVESGGGLVQAGGSLRLSCAASGSTLYYYAMGWYRQAPGKERELVATITNGGSTNYADSVKGRFTISRYNAKNTVYLQMNSLKPEDTAVYYCNARRGYWGSNYWGEGTQVTVSS ; polyreactivity (PSR sort gate) = high polyreactivity

So for QVQLVESGGGLVQAGGSLRLSCAASGNIFLYYAMGWYRQAPGKERELVADIDSSGASTYYADSVKGRFTISRDNAKNTVYLQMNSLKPEDTAVYYCATEDFRTDTGMYYWGQGTQVTVSS , the logged polyreactivity (PSR sort gate) turned out to be low polyreactivity

Form field polyreactivity (PSR sort gate), entry QVQLVESGVGLVQAGGSLRLSCASSGILVYNAMAWYRQAPGKERELVAAISARGGRTYYADSVKGRFTISRDNAKNTVYLQMNSLKPEDTAVYYCATLETTGVNYWGQGTQVTVSS : high polyreactivity

====

- Assay details: yeast display, Sf9 membrane polyspecificity reagent, FACS + sequencing; frameworks hold sequencing errors
Experimental readout: polyreactivity (PSR sort gate)

| Construct sequence | Result |
| --- | --- |
| QVQLVESGGGLFQAGGSLRLSCAASGITFAQYAMGWYRQAPGKDRELVAVISSGGSTNYADSVKGRFTISRDNAKNTVYLQMNSMKPEDTAVYYCNADEAAPVYSYYYWGQGTQVTVSS | low polyreactivity |
| QVQLVESGGGLVQAGGRLRLSCAASGSTFVTNYMGRYRQAPGKERELVAAISSGTSTNYADSVKGRFTISRDNAKNTVYLQMNSLTREDTPVYYCAADSLKRYDYWGQGTQVTVSS | low polyreactivity |
| QVQLVESGGGLVQAGGSLRLSCAASGRTFYQYAMGWYRPAPGKERELVAAITTSGGSTYYADSVKGRFTNSRDNAKNTVYLQMNSLKPEDTAVYYCAAPYTGYRERGSYKSDYWGQGTQVTESS | low polyreactivity |

====

- Assay details: yeast display, Sf9 membrane polyspecificity reagent, FACS + sequencing; frameworks hold sequencing errors
Experimental readout: polyreactivity (PSR sort gate)

Look over these answered cases.
| Construct sequence | Result |
| --- | --- |
| QVQLVESGGGLVQAGGSLRLSCAASVLTFYEYAMGWYRQAPGKERELVASISGRAASTDYADSVKGRFTISRDNAKNTVYLQMNSLKPEDTAVYYCAVGVVGDIDTDGYWGQGTQVTVSS | low polyreactivity |
| QVQLVESGGGLVQAGGSLRLSCAASGRTFYWYAMGWYRQAPGKERELVAGISSGGGTYYADSVKGRFTISRDNAKNTVYLQMNSLKPEDTAVYYCAAAWENIWVWQEYIEYDYWGQGTQVTVSS | low polyreactivity |
| QVQLVESGGGLVQAGGSLRLSCAASGFTLARYAMGWYRPAPGKERELVAALTQSGVSTYYADSVKGRFTISRDNAKNTVYLQMNSLKPEDTAVYYCNALLRRTDYRYTWGYGYWGQGTQVTVSS | high polyreactivity |
| QVQLVESGGGLVQAGGSLRLSCAASGSTFIWNAMGWYRQAPRKERELVATITYSGGSTYYADSVKGRFTISRDNAKNTVYLQMNSLKPEDTAVYYCATDATIPKCYTYPGEMDYWGQGTQVTVSS | low polyreactivity |
| QVQLVESGGGLVQAGGSLRLSCAASGRIFSRNAMGWYRQAPGKERELVAAISSSAGSTYYADSVKGRFTISRDNAKHTVYLQMNSLKPEDTAVYYCGAESVGDMDYWGQGTQVSVSS | low polyreactivity |

Looking up QVQLVESGGGLVQAGGSLRLSCAASGRTFYGYAMGWSRPAPGKERELVAAISTGGSTSYADSVKGRFTISRDNAKNTVYLQMNSLKPEDTAVYYCAAVYYLTDWYGVWYSFDYWGQGTQVTVSS , I see its polyreactivity (PSR sort gate) listed as low polyreactivity

Consider QVQLVESGGGLVQAGGSLRLSCAASGSTFTTYAMAWYRQAPGKERELVAAISTNGGRTFYADSVKGRFTISRDNAKNTVYLLMNSLKAEDTAVYYCAADRAGSIMNYWGQGTQVTVSS . Its measured polyreactivity (PSR sort gate) is low polyreactivity

Record summary for QVQLVESGGRLVQAGGSLRLSCAASGRIFGDYAMGRYRQAPGKERDLVAAISWSDGSTYYADSVKGRFTISRDNAKNTVYLQMNSLTPEDTAVYYCPAYGWGYRYVDVVVSDFYYWGQGTQVTVSS : reported polyreactivity (PSR sort gate) = low polyreactivity

The sequence identified as QVQLVESGGGLVQAGGSLRLSCAASGRTFRANTMGWYRQAPGKERELVAAITWSGASTYYADSVKGRFTISRDNAKNTVYLQMNSLKPEDTAVYYCNAGWDSGIVQSDETVYKYDYWGQGTQVTVSS registered its polyreactivity (PSR sort gate) at low polyreactivity

Just so you know, measured polyreactivity (PSR sort gate) for QVQLVESGGGLVQAGGSLRLSCAASGITFWANAMGWERQAPGKERELVASIRSSGGSTYYADSVKGRFTISRDNAKNTVYLQMYSLKPEDTAVYYCYAKRTGPWFLHVPVYYWGQGTQVTVSS came out at low polyreactivity

Record QVQLVESGGGLVQAGGSLRLSCAASGFTFLKNAMGWYRQAPGKERELVAAITSSGGRTYYADSVKGRFTISRDNAKNTVYLQMNSLKPEDTAVYFCIKGPLPGYDYWGQGTQVTVSS . Reported polyreactivity (PSR sort gate): high polyreactivity

====

- Assay details: yeast display, Sf9 membrane polyspecificity reagent, FACS + sequencing; frameworks hold sequencing errors
Experimental readout: polyreactivity (PSR sort gate)

Example entries and their recorded answers appear below.
| Construct sequence | polyreactivity (PSR sort gate) |
| --- | --- |
| QVQLVESGGGLVQAGGSLRLSCAASGFIFYRYAMGWYRQAPGKERELVATISWSGGRTYYADSVKGRFTISRDNAKNTVYLQMNSLKPEDTAVYYCNAVNTHDYGYWGQGTQVTVSS | low polyreactivity |
| QVQLVESGGGLVQAGGSLRLSCAASGRIFITNAMGGYRQAPGKERELVASITVSGDSTYYADSVKGRFTISRDNAKNTVYLQMNSLKPEDTAVYYCAADYYALDKVLGYNYWGQGTQVTVSS | low polyreactivity |
| QVQLVESGGGLVQAGGSLRLSCAASGLTFVVYAMGWYRQAPGKERELVAAISSTGNTYYADSEKGRFTISRDNAKNTVYLQMNSLKPEDTAVYYCAAERSFYWYHFDYWGQGTQVTVSS | high polyreactivity |
| QVQLVESGGGLVQAGGSLRLSCAASGFTFYPYAMGWYRQAPGKERELVASISSRGGSRTYYADSVKGRFTISRVNEKNTVYLQMNSLKTEDSAVYYCAATYVGLYRGYFTLTYYYWGQGTPVTVSS | high polyreactivity |
| QVQLVESGGGLVQAGGSLRLSSAASGSIFYQYAMGWYRQAPGKERQLVAAISRSGGSTYYAESVKGRFTISRDNAKNTVYLQMNSLIPEDTAVYYCATDIYSRWAGYKRSQYDYWGQGTQVTVSS | high polyreactivity |
| QVQLVESGGGLVQAGGSLRLSCAASGFILATYAMGCYRQAPGKERELVAAISASGSSTYYADSVKGRFTISRDNAKNTVYLQMNSLKPEDTAVYYCAASWGYGALTPDMGYWGQGTQVTVSS | low polyreactivity |
| QVQLVESGGGLVQAGASLRLSCAASGRIFHHNVMGWYIQAPGKERELVAAISQSGGSTYYADSVKGRFTISRDNAKNTVYLQMNSLKPEDTAVYYCNDGAAGRRYNYWGQGTQVTVSS | low polyreactivity |
| QVQLVESGGGLDQSGGSLSLSCAASGSNFRLNAMGWSRQAPGKETELVAAISYRGGSTNYADSVKGRFTISRDNAKNTVYLQMNILKPEDTAVYYCAANIYRSSGQCMDYWGQGTEVTVSS | low polyreactivity |

The sequence listed as QVQLVESGGGLVQAGGSLRLSCAASGSIFYYNAMGWYRQEPGKERELVATITSAVSTNYADSVKGRFTISRDNAKNTVYLQMNSLKPEDTAVYYCATVYSLSFELDYWGQGTQVTVSS has a reported polyreactivity (PSR sort gate) of low polyreactivity

Data provenance: the nanobody polyreactivity screen of Harvey et al. (2022)
